# Test system: A549 cells
# assay-method-text: Cell migration assay (24-well transwell, laminin)
# Format: cell-based, human
# experimental-parameters: Homo sapiens, A549, 6 h, laminin 10 μg/mL in lower well, test compounds 0.39˜100 μM, migrated cells counted, read-out: Inhibitory activity against cell migration
Overview of reported IC50 across a group of compounds:

Please review the following examples before continuing.
compound	IC50
CC(c1ccc(C(=O)O)cc1)N(CCc1cc(F)c(F)c(F)c1)c1nc2cccc(F)c2s1 (centres unmarked)	> 10 µM
COc1ccc(CCN(Cc2ccc(C(=O)O)cc2)c2nc3cc(Br)ccc3s2)cc1	< 1 µM
COc1ccc(CCN(Cc2ccc(C(=O)O)cc2)c2nc3ccc(Cl)c(F)c3s2)cc1	< 1 µM
COc1ccc(CCN(Cc2ccc(C(=O)O)cc2)c2nc3cccc(C(F)(F)F)c3s2)cc1	< 1 µM
COc1ccc(CCN(Cc2ccc(C(=O)O)cc2)c2nc3cccc(F)c3s2)c(C)c1C	> 10 µM

Item: COc1ccc(CCN(Cc2ccc(C(=O)O)cc2)c2nc3ccc(Cl)cc3s2)cc1 | System: A549 cells | IC50: < 1 µM

Item: COc1ccc(CCN(Cc2ccc(C(=O)O)cc2)c2nc3ccc(C(F)(F)F)c(F)c3s2)cc1 | System: A549 cells | IC50: > 10 µM

Item: COc1ccc(CCN(Cc2ccc(C(=O)O)cc2)c2nc3ccc(F)cc3s2)cc1 | System: A549 cells | IC50: < 1 µM
